- Tested on: HCT-116 cells
- Experimental Details: MTT antiproliferative assay, HCT-116 cells
- Format: cell-based, human
- Assay Context: Homo sapiens, HCT-116, 48 h, exposure for 48 h
Experimental Endpoint: IC50 (µM)

[I] COc1cc(N(Cc2nc(C)c3ccccc3n2)S(=O)(=O)c2ccccc2)cc(OC)c1OC [Compound 10a]
[II] COc1ccc(CN(c2cc(OC)c(OC)c(OC)c2)S(=O)(=O)c2ccc(OC)cc2)cc1 [Compound 6e]
### Prompt Smaller IC50 value? Options are I and II # answer = label of selected item
### Response II

[1] COc1cc(N(Cc2nc(C)c3ccccc3n2)S(=O)(=O)c2ccc(C)cc2)cc(OC)c1OC [Compound 10e]
[2] COc1ccc(S(=O)(=O)N(Cc2ccc(C)cc2)c2cc(OC)c(OC)c(OC)c2)cc1 [Compound 9d]
[3] COc1cc(N(Cc2nc(C)c3ccccc3n2)S(=O)(=O)c2ccc(C(C)(C)C)cc2)cc(OC)c1OC [Compound 10g]
[4] COc1ccc(CN(c2cc(OC)c(OC)c(OC)c2)S(=O)(=O)c2ccc(C)cc2)cc1 [Compound 6c]
### Prompt Arrange these compounds by their IC50, starting with the largest number. List each label, following the requested order.
### Response 3, 2, 4, 1
(3: 22.4 µM, 2: 11.9 µM, 4: 6.18 µM, 1: 2.48 µM)

* * *

Experimental Endpoint: melting point

> print(dat)
                                   molecule  experimental.endpoint  reported.measurement
1  COc1ccc(CN(c2cc(OC)c(OC)c(OC)c2)S(=O)(=O)c2ccc(OC)cc2)cc1          melting point         179 to 180 °C

### Prompt Supply reported melting point belonging to this molecule: "COc1ccc(S(=O)(=O)N(Cc2ccc(C)cc2)c2cc(OC)c(OC)c(OC)c2)cc1"
### Response 164 to 165 °C

### Prompt Supply reported melting point belonging to this molecule: COc1cc(N(Cc2nc(C)c3ccccc3n2)C(=O)c2ccc(Br)cc2)cc(OC)c1OC [Compound 11c]
### Response 182 to 183 °C

### Prompt Supply reported melting point belonging to this molecule: COc1cc(N(Cc2nc(C)c3ccccc3n2)S(=O)(=O)c2ccccc2)cc(OC)c1OC [Compound 10a]
### Response 178 to 179 °C

### Prompt Supply reported melting point belonging to this molecule: "COc1ccc(S(=O)(=O)N(Cc2ccccc2)c2cc(OC)c(OC)c(OC)c2)cc1"
### Response 161 to 162 °C

### Prompt Supply reported melting point belonging to this molecule: "COc1ccc(CN(c2cc(OC)c(OC)c(OC)c2)S(=O)(=O)c2ccc(F)cc2)cc1"
### Response 156 to 157 °C

### Prompt Supply reported melting point belonging to this molecule: "COc1ccc(S(=O)(=O)N(Cc2cccnc2)c2cc(OC)c(OC)c(OC)c2)cc1"
### Response 158 to 159 °C

### Prompt Supply reported melting point belonging to this molecule: COc1cc(N(Cc2nc(C)c3ccccc3n2)C(=O)c2ccc(F)cc2)cc(OC)c1OC [Compound 11b]
### Response 162 to 163 °C

### Prompt Supply reported melting point belonging to this molecule: "COc1ccc(S(=O)(=O)N(Cc2ccc(Cl)cc2)c2cc(OC)c(OC)c(OC)c2)cc1"
### Response 172 to 173 °C
